- Tested on: DeltatarO mutant
- EXPERIMENT NOTES: S. aureus survival, RN4220 and DeltatarO strains – OD600, teichoic acid synthesis inhibitors, primary screen (AID 463173)
- CONDITION PARAMETERS: S. aureus RN4220 wild type/DeltatarO growth, OD600, 18 h, screened at 18.75 µg/mL (by protocol)
In all, about 52,000 compounds went through this assay and about 4,300 (8.3%) were called active. No stated cut-off is given here; in the data, active means survival mostly below about 52% (no sharp cut-off); inactive means mostly above about 56%. What follows is part of a selection rich in actives, with near analogues and random picks from the rest.
Classes used: active, inactive

[[record]]
molecule = "CCCc1cc(C(=O)Nc2c(C)nn(Cc3ccc(C)cc3)c2C)no1"
class_assignment = "inactive"

[[record]]
molecule = "O=C(Cn1c(=O)oc2cc(S(=O)(=O)NCc3ccccc3)ccc21)Nc1cccc(F)c1"
class_assignment = "inactive"

[[record]]
molecule = "Nc1nnc(SCc2ccccc2)s1"
class_assignment = "active"

[[record]]
molecule = "CCN(CC)C(NC(=O)c1ccccc1)C(=O)c1ccccc1 (stereo unspecified)"
class_assignment = "inactive"

[[record]]
molecule = "CCOc1cccc(C2Nc3ccccc3-c3cc(C)nn32)c1O (stereo unspecified)"
class_assignment = "inactive"

[[record]]
molecule = "Nc1nc(SCc2ccccc2)ns1"
class_assignment = "inactive"


====

- System: DeltatarO mutant
- EXPERIMENT NOTES: S. aureus survival, RN4220 and DeltatarO strains – OD600, teichoic acid synthesis inhibitors, primary screen (AID 463173)
- CONDITION PARAMETERS: S. aureus RN4220 wild type/DeltatarO growth, OD600, 18 h, stronger effect = lower value, screened at 18.75 µg/mL (by protocol)
Screen size: about 52,000 compounds; about 4,300 (8.3%) were called active. Many of the other results were omitted from the sample, so actives are more common in it than they were.
# thresholds on survival define classes: bucket A (below 70%), bucket B (70% to below 90%), bucket C (90% or more)

[[record]]
compound = "COc1ccc(CN2CCCN(CC(=O)Nc3ccc4c(c3)OCCO4)S2(=O)=O)cc1"
class_assignment = "bucket B"

[[record]]
compound = "Cn1cnc2c(=O)oc3ccc(S(=O)(=O)N4CCN(c5cccc(Cl)c5)CC4)cc3c21"
class_assignment = "bucket A"

[[record]]
compound = "CCOc1ccc(NC(=O)Cn2cc(C(=O)c3ccc(C)c(C)c3)c(=O)c3cc(OC)c(OC)cc32)cc1"
class_assignment = "bucket C"

[[record]]
compound = "COc1ccc(-n2nc(C(=O)Nc3ccc(C(C)=O)cc3)nc2-c2ccccc2)cc1"
class_assignment = "bucket A"

[[record]]
compound = "O=C(Nc1ccc2c(c1)N(C1CCCC1)C(=O)c1ccccc1S2)c1ccccc1"
class_assignment = "bucket A"

[[record]]
compound = "CCOc1cc(C2C(C(=O)Nc3ccccc3)=C(C)Nc3ncnn32)cc(Br)c1O (configuration not stated)"
class_assignment = "bucket C"

[[record]]
compound = "CC(=O)c1ccc(NC(=O)c2nc(-c3ccccc3)n(-c3ccc(C)cc3)n2)cc1"
class_assignment = "bucket A"

[[record]]
compound = "O=C(Nc1ccc(F)cc1)c1ncn(-c2ccccc2)n1"
class_assignment = "bucket B"

[[record]]
compound = "Fc1cccc(CSc2nc(NCCc3ccccc3)c3ccccc3n2)c1"
class_assignment = "bucket A"

[[record]]
compound = "COc1ccc(-c2nc(Cn3c(SCc4ccc(C)cc4)nc4cccnc43)c(C)o2)cc1OC"
class_assignment = "bucket C"

[[record]]
compound = "CCn1cc(S(=O)(=O)c2cccc(C)c2)c(=O)c2cc(F)c(N3CCCCC3C)cc21 (configuration not stated)"
class_assignment = "bucket B"

[[record]]
compound = "CCCn1c(-c2ccc(F)cc2)cnc1SCC(=O)N1CCCCC1C (configuration not stated)"
class_assignment = "bucket B"

[[record]]
compound = "CC(=O)c1cccc(NC(=O)c2nc(-c3ccccc3)n(-c3ccccc3)n2)c1"
class_assignment = "bucket A"

[[record]]
compound = "CCOC(=O)c1ccc(NC(=O)c2ncn(-c3ccccc3)n2)cc1"
class_assignment = "bucket C"

[[record]]
compound = "CCOc1ccccc1NC(=O)c1cc2c(=O)[nH]c3ccccc3c2s1"
class_assignment = "bucket A"

[[record]]
compound = "Cc1ccc(-n2c(=O)c3oc4ccccc4c3n(CC(=O)Nc3ccccc3)c2=O)cc1C"
class_assignment = "bucket A"

[[record]]
compound = "CC(=O)N1CCN(CCN2C(=O)C3C4c5ccccc5C(c5ccccc54)C3C2=O)CC1 (configuration not stated)"
class_assignment = "bucket C"

[[record]]
compound = "COc1ccc(NC(=O)C2=C(C)Nc3ncnn3C2c2ccc(O)cc2)cc1 (configuration not stated)"
class_assignment = "bucket C"

[[record]]
compound = "O=C(Nc1ccc(Cl)cc1)c1cc2c(Cl)nc3ccccc3c2s1"
class_assignment = "bucket C"

[[record]]
compound = "CC(C)NC(=O)c1cc2c(Cl)nc3ccccc3c2s1"
class_assignment = "bucket A"

[[record]]
compound = "CCn1c(=O)cc(SCC(=O)Nc2cc(Cl)ccc2OC)c2ccccc21"
class_assignment = "bucket A"

[[record]]
compound = "COc1cccc(CNC(=O)c2nn(C)c3c2CS(=O)(=O)c2ccccc2-3)c1"
class_assignment = "bucket B"

[[record]]
compound = "CC(=O)c1ccc(NC(=O)c2nc(-c3ccccc3)n(-c3ccccc3)n2)cc1"
class_assignment = "bucket B"

[[record]]
compound = "CC(=O)c1ccc(NC(=O)c2ncn(-c3ccccc3)n2)cc1"
class_assignment = "bucket A"

[[record]]
compound = "CC1(C)CC(=O)C(C=NCc2ccccc2)=C(O)C1"
class_assignment = "bucket C"

[[record]]
compound = "Cn1cnc2c(=O)oc3ccc(S(=O)(=O)N4CCN(c5ccccc5)CC4)cc3c21"
class_assignment = "bucket B"

[[record]]
compound = "COc1ccc(CCNc2nc(SCc3cccc(F)c3)nc3ccccc23)cc1OC"
class_assignment = "bucket B"

[[record]]
compound = "Cc1nc(SCCOc2ccccc2F)[nH]c(=O)c1Cc1ccccc1"
class_assignment = "bucket B"

[[record]]
compound = "COc1ccc(C(C(=O)Nc2ccc(C(C)C)cc2)N(C)C(=O)Cc2cccs2)cc1 (configuration not stated)"
class_assignment = "bucket C"

[[record]]
compound = "CC(C)COc1ccc(C(=O)Nc2scc(-c3ccc(Br)cc3)c2C(=O)OC(C)C)cc1"
class_assignment = "bucket A"

[[record]]
compound = "CCC(=O)Nc1ccc(NC(=O)c2ccc(F)cc2)nc1"
class_assignment = "bucket B"

[[record]]
compound = "CC(=O)Nc1ccc(C(=O)Nc2ccc3c(c2)N(C2CCCC2)C(=O)c2ccccc2S3)cc1"
class_assignment = "bucket A"

